Source: patent US20020049223A1

Entries and their Antibacterial Activity (MIC's), D
Tested on: Escherichia coli JUHL
assay_info: Assay B: in vitro antibacterial activity, broth microdilution MIC (NCCLS)
Assay type: cell-based
condition_context: Table 2, Assay B, cation-adjusted Mueller Hinton broth, 35° C., 16 to 20 hr; code D = Escherichia coli JUHL; unit assumed
observation_type: Antibacterial Activity (MIC's), D (µg/mL)

Cl.NC1CCCc2cc(-c3c(F)cc4c(=O)c(C(=O)O)cn(C5CC5)c4c3F)sc21 (stereo not drawn): 0.03
Cl.NC1CCCc2cc(-c3cc4c(cc3F)c(=O)c(C(=O)O)cn4C3CC3)sc21 (stereo not drawn): 0.015
COc1c(-c2cc3c(s2)CCCC3NCc2ccccc2)ccc2c(=O)c(C(=O)O)cn(C3CC3)c12.Cl (stereo not drawn): 1
COc1c(-c2cc3c(s2)CCCC3=NNC(N)=S)ccc2c(=O)c(C(=O)O)cn(C3CC3)c12: 1
COc1c(-c2cc3c(s2)C(N)CN(S(C)(=O)=O)C3)ccc2c(=O)c(C(=O)O)cn(C3CC3)c12 (stereo not drawn): 1

----------
Tested on: Escherichia coli JUHL
assay_info: Assay B: in vitro antibacterial activity, broth microdilution MIC (NCCLS)
Assay type: cell-based
condition_context: Table 2, Assay B, cation-adjusted Mueller Hinton broth, 35° C., 16 to 20 hr; code D = Escherichia coli JUHL; unit assumed
Counter-ions that a name gives are not always drawn.
Binarize Antibacterial Activity (MIC's), D at 0.2 µg/mL; below is criterion met, at or above is criterion not met.

CNC1CCCc2sc(-c3ccc4c(=O)c(C(=O)O)cn(C5CC5)c4c3OC(F)F)cc21 (stereo not drawn) [Example 107, hydrochloride]: criterion not met
COc1c(-c2cc3c(s2)CCCC3CN)ccc2c(=O)c(C(=O)O)cn(C3CC3)c12 (stereo not drawn): criterion met
Nc1c(F)c(-c2cc3c(s2)C(O)CCC3)c(F)c2c1c(=O)c(C(=O)O)cn2C1CC1 (stereo not drawn): criterion met
COc1c(-c2cc3c(s2)CNCC3O)ccc2c(=O)c(C(=O)O)cn(C3CC3)c12 (stereo not drawn): criterion not met
O=C(O)c1cn(C2CC2)c2c(F)c(-c3cc4c(s3)C(O)CCC4)c(F)cc2c1=O (stereo not drawn): criterion met
COc1c(-c2cc3c(s2)CC(NS(C)(=O)=O)C3)ccc2c(=O)c(C(=O)O)cn(C3CC3)c12 (stereo not drawn): criterion not met
COc1c(-c2cc3c(s2)CCC(=O)C3)ccc2c(=O)c(C(=O)O)cn(C3CC3)c12: criterion not met
CNC1CCCc2sc(-c3ccc4c(=O)c(C(=O)O)cn(C5CC5)c4c3Cl)cc21.Cl (stereo not drawn): criterion met
CNC1CCCc2cc(-c3ccc4c(=O)c(C(=O)O)cn(C5CC5)c4c3OC)sc21.Cl (stereo not drawn): criterion not met
COc1c(-c2cc3c(s2)CCC(=NOCc2ccccc2)C3)ccc2c(=O)c(C(=O)O)cn(C3CC3)c12: criterion not met
CON=C1CCCc2cc(-c3ccc4c(=O)c(C(=O)O)cn(C5CC5)c4c3OC)sc21: criterion met
CCON=C1CCc2sc(-c3ccc4c(=O)c(C(=O)O)cn(C5CC5)c4c3OC)cc2C1: criterion not met
COc1c(-c2cc3c(s2)C(=O)CCC3)ccc2c(=O)c(C(=O)O)cn(C3CC3)c12: criterion not met
CNC1CCCc2sc(-c3c(F)c(N)c4c(=O)c(C(=O)O)cn(C5CC5)c4c3F)cc21.Cl (stereo not drawn): criterion met
Cl.NC1CCCc2cc(-c3cc(F)c4c(=O)c(C(=O)O)cn(C5CC5)c4c3F)sc21 (stereo not drawn): criterion met
COc1c(-c2cc3c(s2)C(O)CCC3)c(F)cc2c(=O)c(C(=O)O)cn(C3CC3)c12 (stereo not drawn): criterion met
COc1c(-c2cc3c(s2)CCC(C)(C)C3O)ccc2c(=O)c(C(=O)O)cn(C3CC3)c12 (stereo not drawn): criterion not met
CNC1CCCc2sc(-c3nc4c(cc3F)c(=O)c(C(=O)O)cn4C3CC3)cc21 (stereo not drawn) [Example 108, hydrochloride]: criterion met
COc1c(-c2sc3c(c2C)C(N)CCC3)ccc2c(=O)c(C(=O)O)cn(C3CC3)c12.Cl (stereo not drawn): criterion not met
Cl.NC1CCCc2sc(-c3ccc4c(=O)c(C(=O)O)cn(C5CC5)c4c3)cc21 (stereo not drawn): criterion met
COc1c(-c2cc3c(s2)CCC(Br)C3=O)ccc2c(=O)c(C(=O)O)cn(C3CC3)c12 (stereo not drawn): criterion not met
COc1c(-c2cc3c(s2)CCCC3NS(C)(=O)=O)ccc2c(=O)c(C(=O)O)cn(C3CC3)c12 (stereo not drawn): criterion not met
COc1c(-c2cc3c(s2)CCC(F)(F)C3N)ccc2c(=O)c(C(=O)O)cn(C3CC3)c12 (stereo not drawn): criterion not met
Cl.NC1CCCc2cc(-c3ccc4c(=O)c(C(=O)O)cn(C5CC5)c4n3)sc21 (stereo not drawn): criterion met

----------
Tested on: Staphylococcus aureus ATCC 6538P
assay_info: Assay A: in vitro antibacterial activity, agar dilution MIC
Assay type: cell-based
condition_context: Table 1, Assay A, BHI agar, 35-37° C., about 20 to 24 hours; code A = Staphylococcus aureus ATCC 6538P; unit assumed
observation_type: Antibacterial Activity (MIC's), A (µg/mL)

Br.CC1NCCc2sc(-c3ccc4c(=O)c(C(=O)O)cn(C5CC5)c4c3OC(F)F)cc21 (stereo not drawn): 0.2
CC1NCCc2cc(-c3nc4c(cc3F)c(=O)c(C(=O)O)cn4C3CC3)sc21.Cl (stereo not drawn): 0.2
COc1c(-c2cc3c(s2)CCC(O)C3)ccc2c(=O)c(C(=O)O)cn(C3CC3)c12 (stereo not drawn): 0.02
COc1c(-c2cc3c(s2)CNCC3)ccc2c(=O)c(C(=O)O)cn(C3CC3)c12.Cl: 0.2
CC1CNCc2sc(-c3ccc4c(=O)c(C(=O)O)cn(C5CC5)c4n3)cc21.Cl (stereo not drawn): 0.2
O=C(O)c1cn(C2CC2)c2nc(-c3cc4c(s3)CCC/C4=N\O)c(F)cc2c1=O: 0.05
COc1c(-c2cc3c(s2)SCCC3N)ccc2c(=O)c(C(=O)O)cn(C3CC3)c12.Cl (stereo not drawn): 0.05
Br.CC1(C)CNCc2cc(-c3ccc4c(=O)c(C(=O)O)cn(C5CC5)c4c3OC(F)F)sc21: 0.2
COc1c(-c2cc3c(s2)CCNC3)ccc2c(=O)c(C(=O)O)cn(C3CC3)c12.Cl: 0.05
